System: Jurkat
protocol_notes: In vitro test for antitumor activity against human Jurkat cell line using a formazan dye (MTT) conversion assay.
Assay type: functional, cell-based
pIC50: −log10 of the molar value.
Where pIC50 equals or exceeds 5, the correct label is fulfilled; where it does not, the label is not fulfilled.

Worked set:
COc1cc2c(cc1OC)C(=O)/C(=C/c1cc(Cl)cc(Cl)c1)CC2: fulfilled
COc1cc2c(cc1OC)C(=O)/C(=C/c1cc(C)c(OC(C)=O)c(C)c1)C2: fulfilled
COc1cc2c(cc1OC)C(=O)/C(=C/c1cc(C)c(O)c(C)c1)C2: fulfilled

Check if pIC50 >= 5 (inclusive). Item: COc1cc2c(cc1OC)C(=O)/C(=C/c1c(OC)cccc1OC)CC2
not fulfilled

Check if pIC50 >= 5 (inclusive). Item: COc1cc2c(cc1OC)C(=O)/C(=C/c1cc(C)c(OCC(=O)O)c(C)c1)C2
fulfilled
